Experimental Protocol: gradient 5% acetonitrile 3 min, to 50% in 2 min, to 85% in 15 min, held 3 min, 100 µL/min
Condition: column: Zorbax Extend-C18 2.1 x 50 mm; eluents: water / acetonitrile, 0.1% formic acid
Measured Quantity: RP-LC retention time (s)

Compound	Measured Quantity	Meas Value
COc1ccc(NC(=O)Nc2cccn3c(C4CCC4)nnc23)cc1F	RP-LC retention time	815
CCn1c(CCc2ccccc2NS(=O)(=O)c2ccc3c(c2)OCCO3)nc2ccccc21	RP-LC retention time	717
CN1CCCc2cc(C(CNC(=O)C(=O)Nc3ccc4c(c3)OCCO4)N3CCCC3)ccc21 (stereo not drawn)	RP-LC retention time	718
O=C(c1nc(Cn2cnc3ccccc3c2=O)no1)N1CCN(Cc2ccc3c(c2)OCO3)CC1	RP-LC retention time	691
COc1ccc(C2(C(=O)N3CCOc4ccc(N5CCOCC5)cc4C3)CC2)cc1	RP-LC retention time	794
COc1ccc(N2CC(NC(=O)C(=O)c3c(C)[nH]c4ccccc34)CC2=O)cc1 (stereo not drawn)	RP-LC retention time	707
CC(C)Nc1ccc2nnc(C3CCC3)n2n1	RP-LC retention time	801
Cc1ccsc1C(=O)N1CCCn2cc(-c3ccccc3)nc21	RP-LC retention time	686

---

Experimental Protocol: gradient 5% acetonitrile 3 min, to 50% in 2 min, to 85% in 15 min, held 3 min, 100 µL/min
Condition: column: Zorbax Extend-C18 2.1 x 50 mm; eluents: water / acetonitrile, 0.1% formic acid
Measured Quantity: RP-LC retention time (s)

Example entries begin here.
Compound	Value Units	RP-LC retention time
CS(=O)(=O)N1CCC(C(=O)NC2CCCC(OC(=O)Nc3ccc(F)cc3)C2)CC1 (stereo unspecified)	s	704
O=C(c1cn[nH]c1)N1CCC(c2nc(CCOCC3CC3)no2)C1 (stereo unspecified)	s	626
O=C(N1CCN(S(=O)(=O)Cc2ccccc2)CC1)N1C[C@H]2C[C@H](C1)[C@H]1CCCC(=O)N1C2	s	709
CC1CCCN(CCCNC(=O)CN2C(=O)CCc3cc(S(=O)(=O)N4CCCCC4)ccc32)C1 (stereo unspecified)	s	638

I. CCOc1ccc(-c2noc(CS(=O)(=O)c3cc(C)c(C)cc3C)n2)cc1
II. CCN1CCN(CCNC(=O)c2ccc3c(c2)N(C)C(=O)C2CCCCN32)CC1 (stereo unspecified)
Ask: RP-LC retention time comparison. Which is larger, I or II ? // output: label of the selected item
Result: I
(I: 1110 s, II: 579 s)

a. Cc1ccc(CNC(=O)C2(C)CN(S(C)(=O)=O)CC(=O)N2c2ccc(C)c(C)c2)cc1 (stereo unspecified)
b. CCN1CCN(Cc2nc3cc(NC(=O)C(C)C)ccc3n2C(C)C)CC1
Ask: Kindly identify the item with the lower RP-LC retention time figure among these two: a and b // output: label of the selected item
Result: b
(b: 563 s, a: 807 s)

I. CCC(=O)N1CCc2cc(N3CC(C(=O)Nc4cccc(SC)c4)CC3=O)ccc21 (stereo unspecified)
II. Cc1ccc(Cn2c(=O)c3sccc3n(Cc3nc(-c4ccc(C)cc4)no3)c2=O)cc1
Ask: RP-LC retention time comparison. Which is larger, I or II ? // output: label of the selected item
Result: II

P. COCCN1C(=O)CS(=O)C12CCN(C(=O)Nc1ccc3c(c1)OCCO3)CC2 (stereo unspecified)
Q. CCc1cccc2c3c([nH]c12)[C@@](CC)(CC(=O)O)OCC3
R. CCCN(C)S(=O)(=O)c1cc(-c2nc(C(C)(C)C)cs2)cs1
Ask: Please list these compounds in decreasing order of RP-LC retention time. To answer, arrange all of the labels according to the requested order.
Result: R, Q, P

P. CCn1c(CCc2ccccc2NS(=O)(=O)c2cccc3nsnc23)nc2ccccc21
Q. CCOc1cccc(-c2noc(-c3nnn4c3COC(c3cccc(OC)c3)C4)n2)c1 (stereo unspecified)
Ask: RP-LC retention time comparison. Which is larger, P or Q ? // output: label of the selected item
Result: Q

I. N#Cc1cccc(NC(=O)N2CCC(c3cc(N)on3)CC2)c1
II. Cc1ccc(-c2nc3cnccn3c2Nc2c(C)cccc2C)cc1
Ask: RP-LC retention time comparison. Which is larger, I or II ? // output: label of the selected item
Result: II
(II: 947 s, I: 660 s)

All values here come from the METLIN SMRT retention time set (Domingo-Almenara et al. 2019).
